# system_under_test: orotidine 5’-monophosphate decarboxylase (MtOMPDC) (Methanothermobacter thermautotrophicus, UniProt O26232)
# Sequence (O26232 whole entry): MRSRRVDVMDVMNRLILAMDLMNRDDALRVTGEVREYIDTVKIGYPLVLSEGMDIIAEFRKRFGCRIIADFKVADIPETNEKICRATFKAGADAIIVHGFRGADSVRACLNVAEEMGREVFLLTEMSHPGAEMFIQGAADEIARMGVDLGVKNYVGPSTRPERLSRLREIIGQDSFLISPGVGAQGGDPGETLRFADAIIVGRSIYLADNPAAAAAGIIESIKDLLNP
observable: Ki (µM)
Write the value in µM as a bare number.

Incoming: Give the measured Ki of O=C1CC(C(=O)O)N([C@@H]2O[C@H](COP(=O)(O)O)[C@@H](O)[C@H]2O)C(=O)N1 (stereo partly shown) .
Outgoing: 100
